I'd be grateful if you could share measured GI50 for these entries.
# Test system: 786-0
# experiment: NCI tumour cell line growth inhibition, 48 h
Structures can show the parent of a compound that is named as a salt. The source made the active and inactive calls. Rule as the data show it: active = GI50 up to about 1.1 µM and inactive = higher.

Answer with reported GI50 of CC(C)(C)[Si](C)(C)O/N=C\c1cccc(O[Si](C)(C)C(C)(C)C)c1
19.2 µM (inactive)

Answer with reported GI50 of O=c1[nH]c(=O)n(CCOc2ccc(Cl)cc2)cc1Nc1ccccc1
44.3 µM (inactive)

Answer with reported GI50 of Cc1cc2nc(N3C(=O)/C(=C/c4ccccc4S)N=C3c3ccccc3)sc2cc1C
18.7 µM (inactive)

Answer with reported GI50 of CC(O)(Cc1ccccc1C#N)Cc1ccccc1C#N
> 100 µM (inactive)

Answer with reported GI50 of COc1ccc(OC)c(C2Cc3cnc4nc(N)nc(N)c4c3C2)c1 (stereo unspecified)
24.2 µM (inactive)

Answer with reported GI50 of COc1cc2nc(-c3cccs3)nc(Nc3cccc([N+](=O)[O-])c3)c2cc1OC
21.3 µM (inactive)

Answer with reported GI50 of CCOC(=O)C1([Se]c2ccccc2)CCCC1=O (stereo unspecified)
14.2 µM (inactive)

Answer with reported GI50 of COC(=O)C(Cc1nc2ccc(Cl)cc2nc1O)C(=O)C(=O)Nc1ccccc1[N+](=O)[O-] (stereo unspecified)
> 100 µM (inactive)

Answer with reported GI50 of CCOc1ccc(-n2c(=O)n3c(Nc4ccc(Cl)cc4)nc4c(c(=O)n(C)c(=O)n4C)n3c2=O)cc1
36.6 µM (inactive)

Answer with reported GI50 of C=CCC1(CN(C)C)CC/C(=C\c2ccc3c(c2)OCO3)C1=O (stereo unspecified)
44.8 µM (inactive)

Answer with reported GI50 of COC(=O)CC(NC(=O)OCc1ccccc1)C(C(C)=O)C(=O)OCc1ccccc1 (stereo unspecified)
> 31.6 µM (inactive)

Answer with reported GI50 of N#C/C(=C1\OC(=N)C(c2ccccc2)C1=O)c1ccccc1 (stereo unspecified)
25 µM (inactive)

Answer with reported GI50 of CC1(C)OC(=O)C(c2cccs2)C(=O)O1
> 100 µM (inactive)

Answer with reported GI50 of C[C@H]1CCC2C(OC(=O)[C@@H]2CN(C)C)[C@]2(C)C(=O)C=CC12O (stereo partly specified)
5.26 µM (inactive)

Answer with reported GI50 of Cc1cc2c(cc1Cl)SC(NNc1ccc([N+](=O)[O-])cc1)=NS2(=O)=O
> 10 µM (inactive)

Answer with reported GI50 of CCOC(=O)Nc1sc2c(c1C#N)CCCC2
> 100 µM (inactive)

Answer with reported GI50 of CN1C[C@H](C(=O)N[C@]2(C)O[C@@]3(O)[C@@H]4CCCN4C(=O)[C@H](Cc4ccccc4)N3C2=O)C=C2c3cccc4[nH]cc(c34)C[C@H]21 [ERGOTAMINE TARTRATE]
20 µM (inactive)

Answer with reported GI50 of CN(C)/C(=N/C(=O)Nc1ccccc1)SCc1ccccc1
> 100 µM (inactive)

Answer with reported GI50 of NNC(=O)C1CCC(=O)N1S(=O)(=O)c1ccccc1 (stereo unspecified)
> 100 µM (inactive)

Answer with reported GI50 of Cc1nc(-c2ccc(/N=C/c3ccc(N(CCOS(C)(=O)=O)CCOS(C)(=O)=O)cc3C)cc2)cs1
13.8 µM (inactive)

Answer with reported GI50 of Cc1ccc(C(=O)Oc2ccccc2)cc1/N=N/N(C)C
> 100 µM (inactive)

----------
# Test system: T47D
# experiment: NCI tumour cell line growth inhibition, 48 h
The source made the active and inactive calls. Rule as the data show it: active = GI50 up to about 1.1 µM and inactive = higher.
measurement_type: GI50

Fill in: GI50 on T47D, entry CC(C)(C)OC(=O)C1C(=O)NC(=O)CC1CC(OCc1ccccc1)C(OCc1ccccc1)C(COCc1ccccc1)OCc1ccccc1 (centres undefined)
29.3 µM (inactive)

Fill in: GI50 on T47D, entry CCNc1ncnc2c1nnn2CC
> 100 µM (inactive)

Fill in: GI50 on T47D, entry CC(=O)O[C@H]1C(=O)[C@@]2(C)[C@H]([C@H](OC(=O)c3ccccc3)[C@]3(O)C[C@H](OC(=O)[C@H](O)[C@@H](NC(=O)c4ccccc4)c4ccccc4C)C(C)=C1C3(C)C)[C@]1(OC(C)=O)CO[C@@H]1C[C@@H]2O
> 25 µM (inactive)

Fill in: GI50 on T47D, entry C1=CC2=CC=CC3c4nc5ccc6ccccc6c5nc4C(=C1)C23 (centres undefined)
> 100 µM (inactive)

----------
# System: SK-MEL-5
# experiment: NCI tumour cell line growth inhibition, 48 h
Structures can show the parent of a compound that is named as a salt. Active and inactive are the calls of the source. Cut-off read from the data, not from the text of the source: active = GI50 up to about 1.1 µM and inactive = higher.
I'd be grateful if you could share measured GI50 for these entries.

Answer with reported GI50 of COC(=O)C(Cc1nc2ccc(Cl)cc2nc1O)C(=O)C(=O)Nc1ccccc1[N+](=O)[O-] (stereo unspecified)
> 100 µM (inactive)

Answer with reported GI50 of Cc1ccc(S(=O)(=O)NC2C(=O)c3ccccc3C(=O)C2n2cnc3ccccc32)cc1 (stereo unspecified)
13.1 µM (inactive)

Answer with reported GI50 of Cc1ccc2c(c1)S(=O)(=O)c1ccc3ccccc3c1N2
> 100 µM (inactive)

Answer with reported GI50 of C/C(N)=C/C(=O)c1[nH]c(C(=O)O)cc1C1CCN(Cc2ccccc2)C1=O (stereo unspecified)
15.3 µM (inactive)

Answer with reported GI50 of Cn1cc(C(=O)c2ccccc2)c2ccccc2c1=O
> 100 µM (inactive)

Answer with reported GI50 of COC1=C(OC)CCC(/C(C#N)=C/c2ccc(OC)c(OC)c2)=C1
> 100 µM (inactive)

Answer with reported GI50 of CSC1=Nc2ccccc2N=C(c2ccc(Cl)cc2)C1
24.2 µM (inactive)

Answer with reported GI50 of CC1C/C(=N\N(C)C)C(C#N)(C#N)C1(C#N)C#N (stereo unspecified)
18.7 µM (inactive)

Answer with reported GI50 of O=C1/C(=C/c2ccc(Br)s2)NC(=S)N1CN1CCOCC1
50 µM (inactive)

Answer with reported GI50 of NCCCNOCCCN
> 100 µM (inactive)

Answer with reported GI50 of CNC(C)Cc1ccccc1OC (stereo unspecified) [METHOXYPHENAMINE HYDROCHLORIDE]
> 100 µM (inactive)

Answer with reported GI50 of O=C(O)C12C3CCC(O3)C1(C(=O)O)C1CCC2O1 (stereo unspecified)
> 100 µM (inactive)

Answer with reported GI50 of O=c1c(C(c2cc(OCc3ccccc3)cc(OCc3ccccc3)c2)c2c(O)oc3ccccc3c2=O)c(O)oc2ccccc12
6.59 µM (inactive)

Answer with reported GI50 of CC1(C)COC(c2ccc(C(F)(F)F)cc2C(O)c2ccc3ccccc3c2)=N1 (stereo unspecified)
> 10 µM (inactive)

Answer with reported GI50 of CO[C@H](c1ccccc1)[C@H](O)[C@](O)(c1ccccc1)P(=O)(OC)OC
> 100 µM (inactive)

Answer with reported GI50 of CCOC(=O)c1cn2c(ccc3sc4ccccc4c(=O)c32)n1
> 100 µM (inactive)

Answer with reported GI50 of CO[C@@H]1C=C[C@@]23c4cc5c(cc4CN(C[C@@H]2O)[C@H]3C1)OCO5 [(+)-HAEMANTHAMINE]
> 10 µM (inactive)

Answer with reported GI50 of CC(=O)OCc1ccc2c(c1)C(O)NC(=O)O2 (stereo unspecified)
72.9 µM (inactive)

Answer with reported GI50 of NC(CCOCCP(=O)(O)O)C(=O)O (stereo unspecified)
> 100 µM (inactive)

Answer with reported GI50 of C=C(C)C(=O)N1c2ccc(OC)cc2CC1C(=O)OCC (stereo unspecified)
> 100 µM (inactive)

Answer with reported GI50 of CC(C)(C)OC(=O)c1cnc(Cl)cn1
47.3 µM (inactive)

----------
# Test system: SR
# experiment: NCI tumour cell line growth inhibition, 48 h
Calls of active or inactive are those of the source. Cut-off read from the data, not from the text of the source: active = GI50 up to about 1.1 µM and inactive = higher.
Choose one outcome from this list and give only that: active, inactive

Please let me know the test result on file for CN1CCc2cc3c4cc2C1Cc1ccc(cc1)Oc1cc(ccc1O)CC1c2c(cc(O)c(c2O4)O3)CCN1C (centres undefined) .
inactive

Please let me know the test result on file for Cc1ccc(S(=O)(=O)N2CCSCCSCCSCCSCC2)cc1 .
inactive

Please let me know the test result on file for Cc1ccc2c(n1)C(=O)C=CC2=O .
inactive

Please let me know the test result on file for CC(=O)c1ccc(N2CCN(C3=C(Cl)C(=O)c4c(O)ccc(O)c4C3=O)CC2)cc1 .
inactive

Please let me know the test result on file for N#C/C(=C\c1cc(O)c(O)c(O)c1)C(N)=O .
inactive

Please let me know the test result on file for C[n+]1c2ccccc2c(CNC(CCC(N)=O)C(=O)O)c2ccccc21 (centres undefined) .
active

Please let me know the test result on file for COC(=O)C1CCCC2(C1)OCCO2 (centres undefined) .
inactive

Please let me know the test result on file for O=C1/C(=C/c2ccccc2)CCCC/C1=C\c1ccccc1 .
inactive

Please let me know the test result on file for CC(=O)O[C@H]1C(=O)[C@@]2(C)[C@H]([C@H](OC(=O)c3ccccc3)[C@]3(O)C[C@H](OC(=O)[C@H](O)[C@@H](NC(=O)c4ccccc4)c4ccccc4C)C(C)=C1C3(C)C)[C@]1(OC(C)=O)CO[C@@H]1C[C@@H]2O .
active
